- Tested on: CCHF envelope peptides (individual peptide not specified) (Crimean-Congo hemorrhagic fever virus)
- assay remarks: ELONA
reported property: binding signal (A405)
All answers are understood in A405, so give the number only.

These solved cases illustrate the format of a correct answer.
- ATCCGTCACACCTGCTCTATACCAACGGGGGACGGTCTGAGCTAGTGACGCCCGTGGTGTTGGCTCCCGTAT [C3-7R]: 1.5
- ATACGGGAGCCAACACCATGGTGACGGACCTTGAGAGCAAGACCGCTACGATTCAGAGCAGGTGTGACGGAT [C1-9F]: 2.24
- ATCCGTCACACCTGCTCTGGGCAGCACTACCGGTGTCGTTGTGTTGGCATTTCTTGGTGTTGGCTCCCGTAT [C1-6R]: 1.95
- ATCCGTCACACCTGCTCTGCATCGGTACCCAGGATATCCTTCTATTGTCAGCTGTGGTGTTGGCTCCCGTAT [C3-4R]: 2.47
- ATACGGGAGCCAACACCACAGACACCGAATGAGCAACACAACAACGGGACCCGTAGAGCAGGTGTGACGGAT [C2-8F]: 1.65

Sample ATCCGTCACACCTGCTCTGCAAAGAGGTCGTAGTGCCGTGTCCGGTCGGATACCTGGTGTTGGCTCCCGTAT [C2-10R] ; binding signal observed: 1.66

Sample ATCCGTCACACCTGCTCTATGAGTCTATCCAGTTCTAAAAGTTCCGCTCTTTATTGGTGTTGGCTCCCGTAT [C1-1R] ; binding signal observed: 1.99

Sample ATACGGGAGCCAACACCAATGAGAGCAAAGATCCCAGGATACACTAATCCCTGTAGAGCAGGTGTGACGGAT [C1-3F] ; binding signal observed: 1.85

###

- Tested on: TBEV target (not specified) (Tick-borne encephalitis virus)
- assay remarks: ELONA
// binding signal lookup, one value per entry
All answers are understood in A405, so give the number only.

These solved cases illustrate the format of a correct answer.
- ATACGGGAGCCAACACCATTGACTTGGCCGTCTCTGACCCCTAGCACCCCTCGCAGAGCAGGTGTGACGGAT [TBEV-10F]: 1.95
- ATACGGGAGCCAACACCAGCCAATTATACAGGTAGGTCAAAAAAGTTTAGGGGAAGAGCAGGTGTGACGGAT [TBEV-4F]: 1.88
- ATACGGGAGCCAACACCACACACAGAGCGCCATGGACTCAGTCAGATGTGATGTAGAGCAGGTGTGACGGAT [TBEV-8F]: 1.85

Shift focus to the following entry.
// assay TBEV target (not specified) (Tick-borne encephalitis virus), entry ATCCGTCACACCTGCTCTGCGAGGGGTGCTAGGGGTCAGAGACGGCCAAGTCAATGGTGTTGGCTCCCGTAT [TBEV-10R] , binding signal value = 1.82

###

- system: CCHF Peptide 1 (envelope surface peptide) (Crimean-Congo hemorrhagic fever virus)
- assay remarks: SPR
reported property: Kd (pM)
All answers are understood in pM, so give the number only.

Sample ATACGGGAGCCAACACCATGGTGACGGACCTTGAGAGCAAGACCGCTACGATTCAGAGCAGGTGTGACGGAT [C1-9F] ; Kd observed: 8.13

###

- Tested on: TBEV target (not specified) (Tick-borne encephalitis virus)
- assay remarks: ELONA
Please assign Not satisfied whenever binding signal is at or above 2 A405, and Satisfied whenever it is below.

- ATCCGTCACACCTGCTCTGAGCGCTGACTGCCAACCCCTGATGGACTCCTGCGGTGGTGTTGGCTCCCGTAT [TBEV-2R]: Not satisfied
- ATCCGTCACACCTGCTCTCAACGGCCACTAGTCTATTCACTTAAAGGGGCATGGTGGTGTTGGCTCCCGTAT [TBEV-5R]: Satisfied
- ATACGGGAGCCAACACCAGAGACGTCTTAGCCTCGCGATCCCGTCCGTTGGCCCAGAGCAGGTGTGACGGAT [TBEV-6F]: Not satisfied
- ATACGGGAGCCAACACCACACGAACGGAGTGCACCGGGGAAGATACTCCAACGCAGAGCAGGTGTGACGGAT [TBEV-3F]: Satisfied

State whether 2 A405 exceeds binding signal recorded for ATCCGTCACACCTGCTCTGCGTTGGAGTATCTTCCCCGGTGCACTCCGTTCGTGTGGTGTTGGCTCCCGTAT [TBEV-3R] . Satisfied

The origin of these recorded values is patent US20120149889.
